# MIC listing for each entry below
Test system: Staphylococcus aureus
Experiment: Minimum inhibitory concentration of the compound against erythromycin-susceptible Staphylococcus aureus Smith OC4172 was determined
Format: functional

[
  {
    "molecular-string": "CC[C@H]1OC(=O)[C@@](C)(F)C(=O)[C@H](C)[C@@H](O[C@@H]2O[C@H](C)C[C@H](N(C)C)[C@H]2O)[C@](C)(OC(=O)NC/C=C/c2ccc3ncccc3c2)C[C@@H](C)C(=O)[C@H](C)[C@H]2NC(=O)O[C@@]21C",
    "MIC [µg/mL]": 0.25
  },
  {
    "molecular-string": "CC[C@H]1OC(=O)[C@@](C)(F)C(=O)[C@H](C)[C@@H](O[C@@H]2O[C@H](C)C[C@H](N(C)C)[C@H]2O)[C@](C)(OC(=O)NC/C=C/c2ccc(-c3cccnn3)cc2)C[C@@H](C)C(=O)[C@H](C)[C@H]2NC(=O)O[C@@]21C",
    "MIC [µg/mL]": 0.12
  },
  {
    "molecular-string": "CC[C@H]1OC(=O)[C@@](C)(F)C(=O)[C@H](C)[C@@H](O[C@@H]2O[C@H](C)C[C@H](N(C)C)[C@H]2O)[C@](C)(OC(=O)NC/C=C/c2ccc(-n3cnnc3)cc2)C[C@@H](C)C(=O)[C@H](C)[C@H]2NC(=O)O[C@@]21C",
    "MIC [µg/mL]": 0.5
  },
  {
    "molecular-string": "CC[C@H]1OC(=O)[C@@](C)(F)C(=O)[C@H](C)[C@@H](O[C@@H]2O[C@H](C)C[C@H](N(C)C)[C@H]2O)[C@](C)(OC(=O)NCc2cn(-c3ncccn3)cn2)C[C@@H](C)C(=O)[C@H](C)[C@H]2NC(=O)O[C@@]21C",
    "MIC [µg/mL]": 0.25
  }
]
